Every entry's value here was drawn from ChEMBL document CHEMBL4229332.

compounds and their reported Kp at 0.5 h
Assay: Ratio of drug level in brain to plasma in Wistar rat at 3 mg/kg, ip measured after 30 mins by LC-MS/MS analysis
Type: ADME, organism-based
Settings: read-out: BPR
Please give the numeric answer without any surrounding text.

Below, 5 compounds whose answers are already recorded.
O=S(=O)(c1cccc2cnccc12)N1CCC[C@H]1CCN1CCN(c2nsc3ccccc23)CC1 ... 0.19
O=S(=O)(c1cccc2cnccc12)N1CCC[C@@H]1CCN1CCN(c2nsc3ccccc23)CC1 ... 0.21
O=S(=O)(c1cncc2ccccc12)N1CCC[C@@H]1CCN1CCN(c2nsc3ccccc23)CC1 ... 0.65
O=S(=O)(c1cncc2ccccc12)N1CCC[C@H]1CCN1CCN(c2nsc3ccccc23)CC1 ... 1.33
O=S(=O)(c1cncc2ccccc12)N1CCC[C@H]1CCN1CCN(c2cccc3sccc23)CC1 ... 2.44

Reported Kp at 0.5 h, compound `O=S(=O)(c1cncc2ccccc12)N1CCC[C@@H]1CCN1CCN(c2cccc3sccc23)CC1` : ____
0.48
